# EXPERIMENTAL SYSTEM: Glycoprotein VI extracellular domain (Gln21-Lys267) (Homo sapiens) (UniProt Q9HCN6)
# Sequence: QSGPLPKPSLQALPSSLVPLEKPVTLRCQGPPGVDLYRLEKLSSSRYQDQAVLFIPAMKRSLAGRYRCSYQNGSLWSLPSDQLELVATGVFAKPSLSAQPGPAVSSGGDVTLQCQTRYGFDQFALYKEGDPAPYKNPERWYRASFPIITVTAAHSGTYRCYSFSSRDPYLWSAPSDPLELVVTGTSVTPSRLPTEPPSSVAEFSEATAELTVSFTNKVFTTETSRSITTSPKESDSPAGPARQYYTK
# TEST NAME: filter
# STATED CONDITIONS: RB490 pattern; hexaethylene glycol spacer between G11 and C12; 3' idT
pKd: −log10 of the molar value.
PARAMETER: pKd

Task item: Fill in the recorded pKd for this sequence, with Glycoprotein VI extracellular domain (Gln21-Lys267) (Homo sapiens) (UniProt Q9HCN6) as test system: GGAGGACGGCGCGCCUGGCAUAAGCCUCC [RB507]
Reply: > 8.00
